Just for reference, ChEMBL document CHEMBL4190332 is where these values come from.

Reported pIC50 values for the following compounds.
- test.system: Bromodomain-containing protein 4 (Homo sapiens)
- test.summary: Inhibition of His-epitope tagged BRD4 bromodomain 1 (44 to 168 residues) (unknown origin) using biotinylated K5,8,12,16 tetra-acetylated histone H4 (1 to 20 residues) peptide as substrate measured after 1 hr by Alphascreen assay
pIC50: −log10 of the molar value.
metric.name: pIC50

smiles.entry: CC(=O)N1c2ccccc2N(C(=O)c2ccccc2)C[C@@H]1C
metric.name: pIC50
test.value: < 4.30
//
smiles.entry: C[C@H]1CN(C(=O)c2ccco2)c2cc(-c3ccc(S(C)(=O)=O)cc3)ccc2N1C=O
metric.name: pIC50
test.value: < 4.60
//
smiles.entry: CC(=O)N1c2ccccc2N(C(=O)CC(C)C)C[C@@H]1C
metric.name: pIC50
test.value: < 4.30
